- Method Notes: Dissolution of API freebase in aqueous CapAcid / Captisol solutions at defined API:CapAcid ratios, visual inspection and NaOH titration
- Applied Conditions: 1:1 ratio of API to CapAcid (relative to the cyclodextrin), water
concentration (FB equivalents) at which the freebase dissolved listing for selected compounds.
// units = µg/mL; emit number, no label

Please review the following examples before continuing.
COc1c(OCCCN2CCOCC2)ccc2c1N=C(NC(=O)c1cnc(N)nc1)N1CCN=C21 : 33300
CCCN(CCc1cccs1)[C@H]1CCc2c(O)cccc2C1 : 10000
N=C(N)c1ccc2cc(OC(=O)c3ccc(N=C(N)N)cc3)ccc2c1 : 33300

# next compound below
concentration (FB equivalents) at which the freebase dissolved for CN1CCC[C@@H]1Cc1c[nH]c2ccc(CCS(=O)(=O)c3ccccc3)cc12 ?
33300
